- PROTOCOL_NOTES: folding stability dG unfold from chymotrypsin proteolysis; higher = more stable
EXPERIMENTAL_READOUT: folding stability dG unfold (kcal/mol)

>>> observed("SAGGSAGGSAEKTLTVVIKVKPNKTPEEIAKEIKKKLNLPNVEIVSIEYDKETNYITIKVKVSAGGSAGGSA [r18_481_TrROS_Hall]")
3.39
>>> observed("SAGGSAGGSAGGKVITVELPDDVTVTFFIPEDPDIVPVEVTPPDGSTLTLPAKDIRELLGSAGGSAGGSAGG [r7_769_TrMRF]")
0.49
>>> observed("SVIKLPIWYPNSPAEQAEEMVQSLARKFMDKYGLKIDVEVETRRDPDGKPRWVRIEATIQYRDEDGKPIFSA [r9_21_TrROS]")
2
>>> observed("SAGGSAGGSAGGMTVTVEISIPVTVETSFFKPNKPYFKKKTINKKITIEIPNGEPLSLLSAGGSAGGSAGGS [r10_633_JUSTAS]")
-0.0788
>>> observed("SAGMKPGEKVKVTLTLTETRVEEVDGEKKVEKRTLTIEVTVEVSEEDREKALEEAEELARKLAEEGLIPSAG [r5_532_TrROS_Hall]")
1.24
>>> observed("ITIRIPPNGNIRIEMIDPNGKWWTYTFPVKDPEENLQRLKDIIRDFFPGFEDVDVKITEVEDGWVTITVPLS [r1_389_TrROS]")
4.96
>>> observed("SAGGSAGGSAGGKMLLIKITTKDGREFTLEISEEEAKKLAEELKKKFPNQKIEVEIVPLKSAGGSAGGSAGG [r7_349_TrROS_Hall]")
3.16
